Target: ETS1 (UniProt P14921)
Sequence: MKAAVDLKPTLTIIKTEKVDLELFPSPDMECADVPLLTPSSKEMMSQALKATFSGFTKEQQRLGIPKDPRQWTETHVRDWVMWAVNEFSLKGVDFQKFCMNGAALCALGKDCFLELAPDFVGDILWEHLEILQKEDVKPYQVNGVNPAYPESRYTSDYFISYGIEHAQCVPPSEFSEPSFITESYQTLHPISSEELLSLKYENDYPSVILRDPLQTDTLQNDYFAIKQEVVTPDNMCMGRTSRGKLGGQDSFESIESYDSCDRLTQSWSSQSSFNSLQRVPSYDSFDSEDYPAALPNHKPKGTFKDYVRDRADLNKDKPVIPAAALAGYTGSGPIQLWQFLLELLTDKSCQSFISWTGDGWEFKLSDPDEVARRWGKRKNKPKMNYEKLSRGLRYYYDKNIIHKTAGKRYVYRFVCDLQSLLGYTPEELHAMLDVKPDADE
Assay: ETS1 binding intensity (PBM fluorescence), ETS1 alone (arbitrary fluorescence units); higher = stronger binding
Conditions: ETS1 concentration 1 nM; RUNX1 concentration 0 nM
Assign Yes to entries whose ETS1 binding intensity meets or exceeds 700; assign No to the rest.

1. CTGCAGATGCATTTCCTTTTTGTGGTAGCAAGCGTG :: No
2. AGCAACAGGAAAGAACAGCCTGACCACAGCAGCCAC :: No
3. AAGGACCGACCCGTTTTCCGCCCGCAGCGGAGCTTG :: No
4. GCCGTCACTTCCGTCATTCAAACCGCCCGCCAATGG :: Yes
5. GCACGTGTTTCCTGGGGCTGCACCACAGCACCACAC :: No
6. TCACTCTAACAGGATATTGTGGTTAACTATGTTGCC :: Yes
7. CCTCACAGGGACTTCCTTCCCCGCGGTTCAGGAATC :: No
8. GGGGCGGCTTCCGGCGGCGTGACCTGACCGCAAGAG :: Yes
9. CACTTCCTGCCCTCTTCCACTTTCAAAACCACATCA :: Yes
10. GGGCCCGGGCCAGGAAGTGGTTTTGCAGAGGTGTTT :: Yes
11. GCCACACCCCCTTCCTGTTGTGTGTGGGGATTCATG :: Yes
12. ACCATAAGGACCGGAAGCAGAGACCACACTGGTGCT :: Yes
13. CCCCTATATCACAGGATGCCGCAAACTAGTAACAGG :: Yes
14. ATGCGAGTCTGCTTCCTGCCACAAATCACAATTTGA :: No
15. AGATCAACTTCCACATCCGGTGGTAACAGGGCCCTA :: Yes
16. TCAGGGTCAGCAGGAGGAAACCACGCACTACATGCT :: No
17. GACACCTGAGAGGATGTGTGGCTTTGTGCTATGAGA :: Yes
18. ATAGTCACCGTTCCGGCCCTCCTCCACCGCACTTCT :: No
19. AGGCCGTGCAGGAAATGAGACCCACAGCCACGTCAC :: Yes
20. GAAGCGCTGGGCGGAAGTGGCTGTGGCTTTGCCCTT :: Yes
21. GGCCGACGGGAAGTGTAGTCCGGCCTGCGGTCCGGG :: Yes
22. CGGCTGTTTTCCAGGATGTTGTGGTCATGGCGGTGT :: Yes
23. GGCCGGGGGCAGGAAGCTGCGGCGCTGGCTCCCCCC :: Yes
24. GACCAATGTAAACAAGGATGTGGGTTCTCCGGGCAC :: Yes
